FYI, the data here is from the supplement of paper PMC7806825.

- Test system: McpC ligand-binding domain (Salmonella Typhimurium SL1344)
- experimental_details: protein melting temperature (Tm) in presence of compound (degrees C); higher = more thermal stabilisation (possible ligand binding)
- experimental_parameters: Biolog plate: PM01; compound stock concentration: 10-20 mM, 2 uL in 10 uL reaction
Each entry below carries its recorded protein melting temperature.
API doc: respond with a numeric literal and nothing else, no unit.

Sample answers from the record:
compound | endpoint_result
Nc1ncnc2c1ncn2[C@H]1C[C@H](O)[C@@H](CO)O1 [2`-Deoxyadenosine] | 43.9
OC[C@H]1O[C@H](O[C@H]2O[C@H](CO)[C@@H](O)[C@H](O)[C@H]2O)[C@H](O)[C@@H](O)[C@@H]1O [D-Trehalose] | 43.9
O=C(O)CC(CC(=O)O)C(=O)O [Tricarballylic acid] | 44.3

From here, focus on the item given below.
Measured protein melting temperature, OC[C@H]1OC(O)[C@@H](O)[C@@H](O)[C@@H]1O (stereo partly drawn) [D-Mannose] : 44.2
